assayed-system: HLA-A*0201 (human)
assay-details: competition with 125I-labelled standard peptide for purified HLA, gel filtration
Doc: threshold 0.0002 (exclusive). Items with binding affinity ratio (IC50 of standard peptide / IC50 of test peptide) beneath it return true; others return false.

>  <binder>
PLSEDQLLYL (modifications not checked) [PAP 147 …]

>  <class-name>
false

$$$$
>  <binder>
PLVCNGVLQGI (modifications not checked) [PSA 212 …]

>  <class-name>
false

$$$$
>  <binder>
PMFKYHLTVA (modifications not checked) [PSM 568 …]

>  <class-name>
false

$$$$
>  <binder>
PAVYTKVV (modifications not checked) [Kallikrein 240 PAVYTKVV]

>  <class-name>
true

$$$$
>  <binder>
PLIQSRIV (modifications not checked) [Kallikrein 19 PLIQSRIV]

>  <class-name>
true

$$$$
>  <binder>
PLVCNGVLQGI (modifications not checked) [Kallikrein 216 …]

>  <class-name>
false

$$$$
>  <binder>
PAELTDAVKVM (modifications not checked) [PSA 125 …]

>  <class-name>
false

$$$$
>  <binder>
PAKITDVV (modifications not checked) [Kallikrein 129 PAKITDVV]

>  <class-name>
true

$$$$
>  <binder>
PADYFAPGV (modifications not checked) [PSM 231 …]

>  <class-name>
true

$$$$
